Target: human FXR (Homo sapiens)
Sequence (Q96RI1 262-486 limits assumed): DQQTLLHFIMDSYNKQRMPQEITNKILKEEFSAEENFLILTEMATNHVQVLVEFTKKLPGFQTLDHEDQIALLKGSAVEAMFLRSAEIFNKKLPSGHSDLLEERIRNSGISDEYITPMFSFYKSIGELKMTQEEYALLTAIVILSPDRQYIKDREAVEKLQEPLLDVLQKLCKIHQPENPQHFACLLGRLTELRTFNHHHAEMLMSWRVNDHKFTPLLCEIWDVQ
Assay: transient human FXR/Gal4-luciferase reporter assay
Conditions: Gal4-hFXR fusion construct, luciferase reporter in HEK293 cells; overnight incubation; response as percentage of 8 μM GW-4064 control
Provide the recorded log10 EC50 for the entries that follow.
For clarity, the numbers are log10 values of EC50 expressed in nM.

Field log10 EC50 (system: human FXR (Homo sapiens)) for entry CNS(=O)(=O)c1cccc(N(CC23CCC(c4noc(C(C)(F)F)n4)(CC2)CC3)C(=O)C23CC(F)(C2)C3)c1 [Example 21] = 3.60

Field log10 EC50 (system: human FXR (Homo sapiens)) for entry CC(C)(C)c1noc(C23CCC(CN(C(=O)C45CC(F)(C4)C5)c4cccc(C#N)c4)(CC2)CC3)n1 [Example 38] = 2.15

Field log10 EC50 (system: human FXR (Homo sapiens)) for entry CC(C)(C)c1noc(C23CCC(CN(C(=O)C4CC(F)(F)C4)c4cccc(C#N)c4)(CC2)CC3)n1 [Example 41] = 2.23

Field log10 EC50 (system: human FXR (Homo sapiens)) for entry CC(F)(F)c1nc(C23CCC(CN(C(=O)C4CCC(F)(F)CC4)c4cccc(F)c4)(CC2)CC3)no1 [Example 9] = 2.65

Field log10 EC50 (system: human FXR (Homo sapiens)) for entry C[C@]1(O)C[C@@H](C(=O)N(CC23CCC(c4noc(C(F)(F)F)n4)(CC2)CC3)c2cccc(C#N)c2)C1 [Example 117] = 3.13

Field log10 EC50 (system: human FXR (Homo sapiens)) for entry CC(F)(F)c1nc(C23CCC(CN(c4cccc(F)c4)C(=O)[C@H]4C[C@](O)(C(F)(F)F)C4)(CC2)CC3)no1 [Example 8] = 2.66

Field log10 EC50 (system: human FXR (Homo sapiens)) for entry CC(F)(F)c1nc(C23CCC(CN(C(=O)C45CC(F)(C4)C5)c4cccc(Br)c4)(CC2)CC3)no1 [Example 33] = 1.11

###

Target: human FXR (Homo sapiens, UniProt Q96RI1)
Test: transient human FXR/Gal4-luciferase reporter assay
Conditions: Gal4-hFXR fusion construct, luciferase reporter in HEK293 cells; overnight incubation; response as percentage of 8 μM GW-4064 control
parameter_measured: pEC50
Formally, pEC50 is defined as -log10 of the concentration c, with c in mol/L.

pEC50 in this record for CCNC(=O)c1cccc(N(CC23CCC(c4noc(C(C)(F)F)n4)(CC2)CC3)C(=O)C23CC(F)(C2)C3)c1 [Example 28] : 6.68

pEC50 in this record for COc1cccc(N(CC23CCC(c4noc(C(C)(F)F)n4)(CC2)CC3)C(=O)C23CC(F)(C2)C3)c1 [Example 129] : 7.14

pEC50 in this record for CC(C)(C)c1nc(C23CCC(CN(C(=O)C45CC(F)(C4)C5)c4cccc(OCC#N)c4)(CC2)CC3)no1 [Example 111] : 6.21

pEC50 in this record for CC(C)(F)c1nc(C23CCC(CN(C(=O)C45CC(C(C)(C)O)(C4)C5)c4cccc(Br)c4)(CC2)CC3)no1 [Example 134] : 6.36

pEC50 in this record for CC(F)(F)c1nc(C23CCC(CN(c4cccc(P(C)(C)=O)c4)C(=O)[C@H]4C[C@](O)(C(F)(F)F)C4)(CC2)CC3)no1 [Example 26] : 5.40

pEC50 in this record for CC(F)(F)c1nc(C23CCC(CN(C(=O)C45CC(F)(C4)C5)c4ccc(F)c(F)c4)(CC2)CC3)no1 [Example 10] : 6.91

pEC50 in this record for CC(F)(F)c1nc(C23CCC(CN(C(=O)C45CC(F)(C4)C5)c4cccc(OC(F)F)c4)(CC2)CC3)no1 [Example 12] : 7.14

pEC50 in this record for Cn1nc(C2CC2)cc1C12CCC(CN(C(=O)C34CC(F)(C3)C4)c3cccc(C#N)c3)(CC1)CC2 [Example 72] : 6.00

pEC50 in this record for N#Cc1cccc(N(CC23CCC(c4noc(C(F)(F)F)n4)(CC2)CC3)C(=O)C23CC(F)(C2)C3)c1 [Example 114] : 7.10

pEC50 in this record for CC(C)(C)c1noc(C23CCC(CN(C(=O)C4CC(F)(F)C4)c4cccc(P(C)(C)=O)c4)(CC2)CC3)n1 [Example 44] : 5.40

pEC50 in this record for CNS(=O)(=O)c1cccc(N(CC23CCC(c4noc(C(C)(F)F)n4)(CC2)CC3)C(=O)[C@H]2C[C@](O)(C(F)(F)F)C2)c1 [Example 22] : 5.40

pEC50 in this record for CC(F)(F)c1nc(C23CCC(CN(C(=O)C4CC(O)(C(F)(F)F)C4)c4cccc(C#N)c4)(CC2)CC3)no1 (centres unmarked) [Example 5] : 6.79

pEC50 in this record for CC(F)(F)c1nc(C23CCC(CN(C(=O)C45CC(F)(C4)C5)c4cc(F)cc(C#N)c4)(CC2)CC3)no1 [Example 135] : 7.74

pEC50 in this record for CC(C)(C)c1nc(C23CCC(CN(C(=O)C45CC(F)(C4)C5)c4cccc(Nc5ncc(OC(F)F)cn5)c4)(CC2)CC3)no1 [Example 102] : 6.74
